Where these numbers come from: patent US20060257938A1

assay: Probe fluorescence ratio response to linolenic acid relative to ADIFAB2; assay type: binding; settings: response relative to ADIFAB2
observable: DR/DR LNA
Give your answer as a number; write no unit.

68T, 72A (protein, listed as Rattus norvegicus, PEPTIDE (1)...(131) wild-type rat intestinal fatty acid binding protein) AFDGTWKVDRNENYEKFMEKMGINVVKRKLGAHDNLKLTITQEGNKFTVKESSNFRNIDVVFELGVDTAYSAADGTELTGTWTMEGNKLVGKFKRVDNGKELIAVREISGNELIQTYTYEGVEAKRIFKKE ... 0.12
60S, 72A (protein, listed as Rattus norvegicus, PEPTIDE (1)...(131) wild-type rat intestinal fatty acid binding protein) AFDGTWKVDRNENYEKFMEKMGINVVKRKLGAHDNLKLTITQEGNKFTVKESSNFRNIDSVFELGVDFAYSAADGTELTGTWTMEGNKLVGKFKRVDNGKELIAVREISGNELIQTYTYEGVEAKRIFKKE ... 0.71

Given the entry 73F 72A (protein, listed as Rattus norvegicus, PEPTIDE (1)...(131) wild-type rat intestinal fatty acid binding protein) AFDGTWKVDRNENYEKFMEKMGINVVKRKLGAHDNLKLTITQEGNKFTVKESSNFRNIDVVFELGVDFAYSAFDGTELTGTWTMEGNKLVGKFKRVDNGKELIAVREISGNELIQTYTYEGVEAKRIFKKE , report its measured DR/DR LNA. 1.775

Now try 72I 73W 74N (protein, listed as Rattus norvegicus, PEPTIDE (1)...(131) wild-type rat intestinal fatty acid binding protein) AFDGTWKVDRNENYEKFMEKMGINVVKRKLGAHDNLKLTITQEGNKFTVKESSNFRNIDVVFELGVDFAYSIWNGTELTGTWTMEGNKLVGKFKRVDNGKELIAVREISGNELIQTYTYEGVEAKRIFKKE . 1.794

Consider next the molecule 36L, 72A wt (protein, listed as Rattus norvegicus, PEPTIDE (1)...(131) wild-type rat intestinal fatty acid binding protein) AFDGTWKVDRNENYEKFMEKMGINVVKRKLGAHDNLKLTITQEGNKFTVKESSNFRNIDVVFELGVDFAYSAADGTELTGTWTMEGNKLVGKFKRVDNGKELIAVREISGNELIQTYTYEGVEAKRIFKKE in the same way. 1.00

Please answer likewise for 117M, 72A (protein, listed as Rattus norvegicus, PEPTIDE (1)...(131) wild-type rat intestinal fatty acid binding protein) AFDGTWKVDRNENYEKFMEKMGINVVKRKLGAHDNLKLTITQEGNKFTVKESSNFRNIDVVFELGVDFAYSAADGTELTGTWTMEGNKLVGKFKRVDNGKELIAVREISGNELIQTMTYEGVEAKRIFKKE 1.36
